molecular target: human ether-à-go-go-related gene (hERG) potassium channel (human, UniProt Q12809); experiment: primary screen, population patch clamp on CHO cells stably expressing hERG; higher = less effect of the substance
Sequence (Q12809 whole entry, looked up): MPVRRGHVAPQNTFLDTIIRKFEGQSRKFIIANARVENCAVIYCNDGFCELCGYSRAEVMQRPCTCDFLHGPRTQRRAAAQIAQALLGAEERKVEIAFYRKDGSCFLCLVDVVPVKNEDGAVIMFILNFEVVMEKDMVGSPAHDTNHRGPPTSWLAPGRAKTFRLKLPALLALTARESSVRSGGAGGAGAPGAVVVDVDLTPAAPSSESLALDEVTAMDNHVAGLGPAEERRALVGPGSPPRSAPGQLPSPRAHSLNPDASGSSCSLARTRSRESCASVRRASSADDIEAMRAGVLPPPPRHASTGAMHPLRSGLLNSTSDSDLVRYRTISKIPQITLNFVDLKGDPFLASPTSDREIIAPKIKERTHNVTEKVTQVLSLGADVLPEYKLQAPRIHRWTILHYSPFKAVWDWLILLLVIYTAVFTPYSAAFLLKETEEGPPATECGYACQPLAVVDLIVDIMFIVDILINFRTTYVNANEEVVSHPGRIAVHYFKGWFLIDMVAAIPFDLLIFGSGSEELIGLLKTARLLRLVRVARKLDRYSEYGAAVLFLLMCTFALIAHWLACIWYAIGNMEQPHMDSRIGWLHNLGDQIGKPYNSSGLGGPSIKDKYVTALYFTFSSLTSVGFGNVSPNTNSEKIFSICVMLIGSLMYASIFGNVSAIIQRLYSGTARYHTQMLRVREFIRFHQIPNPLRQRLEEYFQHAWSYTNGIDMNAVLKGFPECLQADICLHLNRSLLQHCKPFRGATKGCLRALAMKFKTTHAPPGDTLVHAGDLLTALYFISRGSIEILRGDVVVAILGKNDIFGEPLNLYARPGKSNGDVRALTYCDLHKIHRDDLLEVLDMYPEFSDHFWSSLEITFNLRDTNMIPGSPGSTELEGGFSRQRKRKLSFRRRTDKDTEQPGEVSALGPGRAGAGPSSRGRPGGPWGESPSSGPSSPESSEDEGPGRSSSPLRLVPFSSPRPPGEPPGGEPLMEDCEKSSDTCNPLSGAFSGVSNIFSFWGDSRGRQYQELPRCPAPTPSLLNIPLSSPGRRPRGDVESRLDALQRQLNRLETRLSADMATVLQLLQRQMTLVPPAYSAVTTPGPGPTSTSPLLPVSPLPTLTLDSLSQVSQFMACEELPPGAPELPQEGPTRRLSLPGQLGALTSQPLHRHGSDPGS
The campaign covered roughly 310,000 compounds. About 14,000 (4.5%) showed an effect of 50% or more. The effect is printed as a negative number. This excerpt belongs to a sample that is enriched for strong results.
Reported values of hERG current change (%, negative = inhibition) at 10uM for individual entries
Report only the number, with the unit % understood.

INSERT INTO assay_data (compound, measured_result) VALUES
  ('CCc1cc(Cn2nc(-c3ccccc3)cc2C(=O)NCCOC)on1', -9.96),
  ('O=C(NCCN1CCOCC1)c1ccc(NS(=O)(=O)c2cccc([N+](=O)[O-])c2)cc1', 10.6),
  ('CCc1nn(CC(=O)NCCCN2CCOCC2)c(=O)c2cc3sccc3n12', 16.2),
  ('COc1ccc(CN(C2CCCC2)S(=O)(=O)c2ccc(-n3cnnn3)cc2)cc1', -43.8),
  ('COc1ccc(CCN(Cc2cccs2)S(=O)(=O)c2ccc(-n3cnnn3)cc2)cc1OC', -52.5),
  ('CCOC(=O)c1c(NC(=O)Cn2cnc3scc(-c4ccc(C)cc4)c3c2=O)sc(C)c1C', -14.5),
  ('Cc1ccc(CNC(=O)c2cc(-c3ccccc3C)n(CC3CC(c4cccc([N+](=O)[O-])c4)=NO3)n2)cc1 (centres unmarked)', 13.6),
  ('CCc1cc2c(cc3c(=O)n(CC(=O)NCCCN(CC)CC)nc(CC)n32)s1', -34.9),
  ('Cc1ccc2oc(C(=O)NCC(c3ccco3)N(C)C)c(C)c2c1 (centres unmarked)', -8.52),
  ('COc1cc(S(=O)(=O)N(CCc2ccccc2)Cc2cccs2)ccc1-n1cnnn1', -3.57);

Continue with the compound presented below.
Task: State recorded hERG current change (%, negative = inhibition) at 10uM with human ether-à-go-go-related gene (hERG) potassium channel (human, UniProt Q12809), entry `CCOc1ccccc1CNC(=O)CCC(=O)N1Cc2ccccc2Oc2ncccc21` , no comment.
Result: -3.62

----------
molecular target: human ether-à-go-go-related gene (hERG) potassium channel (human, UniProt Q12809); assay: primary screen, population patch clamp on CHO cells stably expressing hERG; higher = less effect of the substance;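 note: peak tail current of the secondary pulse compared with the same well before compound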
In all, about 310,000 compounds went through this assay and about 14,000 (4.5%) showed an effect of 50% or more. The effect is printed as a negative number. The sample holds strong results, similar compounds and a random draw of the others, so the mix is not that of the screen.
recorded_endpoint: hERG current change (%, negative = inhibition) at 10uM (%)
Form entry: value (%) — number only.

Answered examples (2):
INSERT INTO results (molecule, measured_result) VALUES
  ('CC(C)(CO)C(O)C(=O)NCCCO (stereo not shown)', 11.5),
  ('CCOC(=O)c1ccc(NC(=O)NCc2ccccc2)cc1', -9.51);

Task: Respond only with hERG current change (%, negative = inhibition) at 10uM recorded for `C/C(=N\Nc1ccc(C)c(Cl)c1)c1ccncc1`
Result: 24.8

Task: Please give measured hERG current change (%, negative = inhibition) at 10uM of the following entry: `O=C(CSc1ccc(Br)cc1)N1CCN(C(=O)c2ccco2)CC1`
Result: -62.4

----------
target: human ether-à-go-go-related gene (hERG) potassium channel (human); test: primary screen, population patch clamp on CHO cells stably expressing hERG; higher = less effect of the substance;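 note: peak tail current of the secondary pulse compared with the same well before compound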
Out of some 310,000 compounds screened, about 14,000 (4.5%) showed an effect of 50% or more. The effect is printed as a negative number. Only a selection was taken, and strong results are over-represented in it overall.
Listing of recorded hERG current change (%, negative = inhibition) at 10uM by entry.

Worked cases, hERG current change (%, negative = inhibition) at 10uM given:
INSERT INTO results (compound, tested_system, measured_result) VALUES
  ('OCC1(Cc2cccc(F)c2)CCN(Cc2cccc3nccnc23)CC1', 'human ether-à-go-go-related gene (hERG) potassium channel (human)', '-59.8%'),
  ('O=C(NCC12CC3CC(C1)CC(CNC(=O)N1CCCC1)(C3)C2)N1CCCC1', 'human ether-à-go-go-related gene (hERG) potassium channel (human)', '-3.73%'),
  ('CCCn1ncc(CN2CCC(CO)(Cc3ccc(OC)cc3)CC2)c1C', 'human ether-à-go-go-related gene (hERG) potassium channel (human)', '-41.9%');

Task: Check the records and state hERG current change (%, negative = inhibition) at 10uM for `C/C(Cl)=C\Cn1c(NCCc2ccccc2)nc2c1c(=O)n(C)c(=O)n2C`
Result: -9.3%

Task: Assign hERG current change (%, negative = inhibition) at 10uM to the following record: `CCN(CC)CCNc1nc2c(c(=O)n(C)c(=O)n2C)n1C/C=C(/C)Cl`
Result: -58.9%

Task: Indicate the recorded hERG current change (%, negative = inhibition) at 10uM value for this compound: `O=C(CCN1C(=O)c2ccccc2S1(=O)=O)N1CCN(c2ccccc2F)CC1`
Result: -5.02%

Task: State its hERG current change (%, negative = inhibition) at 10uM: `CCc1cccc(C)c1NC(=O)COC(=O)c1ccc2c(c1)S(=O)(=O)c1ccccc1C2=O`
Result: -0.0165%

Task: Please supply the value of reported hERG current change (%, negative = inhibition) at 10uM for the item `CCCNC(=O)c1cc(Cl)c(NC(=O)C2=CSCCO2)cc1OC`
Result: 16.5%

Task: // Input: `COc1ccc(CCN=C(N)NS(=O)(=O)c2ccc(C)cc2)cc1OC` . Output its hERG current change (%, negative = inhibition) at 10uM only.
Result: 6.05%

----------
molecular target: human ether-à-go-go-related gene (hERG) potassium channel (human); test: primary screen, population patch clamp on CHO cells stably expressing hERG; higher = less effect of the substance;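 note: peak tail current of the secondary pulse compared with the same well before compound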
Out of some 310,000 compounds screened, about 14,000 (4.5%) showed an effect of 50% or more. Effects have a minus sign here. The sample as a whole holds a higher share of strong results than the screen did.
The compounds listed here are annotated with their hERG current change (%, negative = inhibition) at 10uM.
Give the number; % is assumed, so skip it.

Sample records with hERG current change (%, negative = inhibition) at 10uM:
INSERT INTO results (compound, measured_result) VALUES
  ('CC(C)Oc1ccc(-c2nc(NCC3CCCO3)c3ccccc3n2)cc1 (centres unmarked)', -27.4),
  ('O=C(N/C(=C/c1cccnc1)C(=O)N1CCOCC1)c1ccco1', 6.59),
  ('OCCCNc1c2ccccc2nc2ccccc12', -65.6),
  ('c1ccc2c(NCCCN3CCOCC3)c3ccccc3nc2c1', -66.6),
  ('COc1ccc(Cl)cc1NC(=O)CCN1C(=O)C2C3C=CC(C4CC34)C2C1=O (centres unmarked)', -24.4);

Task: Answer with the recorded hERG current change (%, negative = inhibition) at 10uM of `c1coc(CSc2ncnc3c2oc2ccccc23)c1` only.
Result: 13.9

Task: Assign hERG current change (%, negative = inhibition) at 10uM to the following record: COc1ccc(S(=O)(=O)Nc2nc3ccccc3nc2NCC2CCCO2)cc1 (centres unmarked)
Result: 5.29

Task: Report hERG current change (%, negative = inhibition) at 10uM, nothing else, for this compound: `O=c1c2ccccc2nc2c3ccccc3c(NCCO)nn12`
Result: -7.34

Task: // fetch hERG current change (%, negative = inhibition) at 10uM given entry Oc1ccccc1-c1nc(NCC2CCCO2)c2ccccc2n1 (centres unmarked)
Result: 19

Task: Find the measured hERG current change (%, negative = inhibition) at 10uM of `O=c1c2ccccc2oc2ccc(NCCCN3CCOCC3)cc12` and report it.
Result: -41.9

----------
target: human ether-à-go-go-related gene (hERG) potassium channel (human); assay: primary screen, population patch clamp on CHO cells stably expressing hERG; higher = less effect of the substance;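 note: peak tail current of the secondary pulse compared with the same well before compound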
The whole screen tested about 310,000 compounds, of which about 14,000 (4.5%) showed an effect of 50% or more. Effects have a minus sign here. The entries come from a sample that favours strong results as a whole.
Each entry below carries its recorded hERG current change (%, negative = inhibition) at 10uM.
Write the numeric value and follow it with the unit.

Task: Tell us which hERG current change (%, negative = inhibition) at 10uM value is on record for Cc1ccc(N(C(=O)c2ccc3c(c2)OCO3)C2C=CS(=O)(=O)C2)cc1 (stereo not shown)
Result: -29.7%

Task: Indicate its recorded hERG current change (%, negative = inhibition) at 10uM; the compound in question is `Cc1nn(Cc2ccccc2)c(C)c1C(=O)OCC(=O)c1cc(C)n(CC(F)(F)F)c1C`
Result: -2.57%

Task: # return recorded hERG current change (%, negative = inhibition) at 10uM for input CCOc1ccc(CN2CCNC(=O)C2CC(=O)O)cc1 (stereo not shown)
Result: 11.1%

Task: Consider the compound CC(C)c1ccc(N(C(=O)c2ccc3c(c2)OCO3)C2C=CS(=O)(=O)C2)cc1 (stereo not shown) . State its measured hERG current change (%, negative = inhibition) at 10uM.
Result: -66.2%

Task: Determine its reported hERG current change (%, negative = inhibition) at 10uM: `CCOC(=O)C1(CCCc2ccccc2)CCN(C(=O)CN2C(=O)CSC2=O)CC1`
Result: -4.63%

Task: Could you please provide reported hERG current change (%, negative = inhibition) at 10uM for `CCOC(=O)C1(CCc2ccccc2)CCN(C(=O)CCn2cnnn2)CC1` ? Thanks!
Result: -43.2%

Task: Please supply the value of reported hERG current change (%, negative = inhibition) at 10uM for the item `Cc1c(C(=O)Nc2ccc3oc(-c4cccnc4)nc3c2)oc2ccccc12`
Result: -16.8%

Task: Recall and state the measured hERG current change (%, negative = inhibition) at 10uM for OCCC1CN(Cc2cccn2-c2nccs2)CCN1Cc1ccc(F)c(F)c1 (stereo not shown) .
Result: -80.7%

Task: Respond only with hERG current change (%, negative = inhibition) at 10uM recorded for `CCOC(=O)C1(CCCc2ccccc2)CCN(C(=O)CCn2cnnn2)CC1`
Result: -56.6%

Task: Please give the documented hERG current change (%, negative = inhibition) at 10uM of COc1ccccc1COCC(O)CN(Cc1ccco1)Cc1ccccc1O (stereo not shown)
Result: -27%
